Data provenance is the supplement of paper PMC10567573.

B1: ANKRD40 (parent)
chain: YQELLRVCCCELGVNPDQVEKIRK

Variants of: B1
protocol details: protein stability index of a GFP-peptide fusion (GPS, HEK-293T) (PSI 1-6); higher = more stable;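 further: lentivirally expressed fusions sorted by FACS into six bins by GFP to DsRed ratio, PSI derived from sequencing read proportions per bin multiplied by bin number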
condition parameters: c terminus: a fixed tail appended
observable: protein stability index

// worked examples, protein stability index included
| input sequence | protein stability index |
| --- | --- |
| YQELLRVCCCELMVNPDQVEKIRK [G13M] | 2.01 |
| YQELLRVCCCELGVNPDQVAKIRK [E20A] | 1.97 |
| YQELLRVCCCELGVNPDQVEKIMK [R23M] | 2.02 |
| YQELLRVCCCELGVNPDGVEKIRK [Q18G] | 2.02 |
| YQELLRVCCCELGVAPDQVEKIRK [N15A] | 1.96 |

Now look at this entry.
Consider the variant shown here: YQELLRVCCCELGVNPDMVEKIRK [Q18M] What is its recorded protein stability index?
2.02
